- System: PC-9
- Assay Procedure: Anti-proliferative activity against human PC-9 cells assessed as reduction in cell proliferation incubated for 72 hrs by MTT assay
- Format: functional, cell-based
- Assay Setup: PC-9, 72 h
Endpoint Name: pIC50
Reminder that pIC50 means the negative base-10 logarithm of the concentration expressed in mol/L.

Example results:
Compound	Val
C=CC(=O)Nc1cccc(Nc2nc(Nc3ccc(N4CCN(CC(=O)NCCCNc5cccc6c5C(=O)N(C5CCC(=O)NC5=O)C6=O)CC4)cc3OC)ncc2C(F)(F)F)c1 (stereo unspecified)	5.59
C=CC(=O)Nc1cccc(Nc2nc(Nc3ccc(N4CCN(C(=O)CCCCCCCCC(=O)Nc5cccc6c5C(=O)N(C5CCC(=O)NC5=O)C6=O)CC4)cc3OC)ncc2C(F)(F)F)c1 (stereo unspecified)	4.57
C=CC(=O)Nc1cccc(Nc2nc(Nc3ccc(N4CCN(CC(=O)NCCCCCNc5cccc6c5C(=O)N(C5CCC(=O)NC5=O)C6=O)CC4)cc3OC)ncc2C(F)(F)F)c1 (stereo unspecified)	5.46
C=CC(=O)Nc1cccc(Nc2nc(Nc3ccc(N4CCN(C(=O)CCCCCCCCCCC(=O)Nc5cccc6c5C(=O)N(C5CCC(=O)NC5=O)C6=O)CC4)cc3OC)ncc2C(F)(F)F)c1 (stereo unspecified)	5.06
C=CC(=O)Nc1cccc(Nc2nc(Nc3ccc(N4CCN(C(=O)CCCCCCCCCC(=O)Nc5cccc6c5C(=O)N(C5CCC(=O)NC5=O)C6=O)CC4)cc3OC)ncc2C(F)(F)F)c1 (stereo unspecified)	5.43

Now for a further compound.
Task item: Look at this compound and give its reported pIC50. C=CC(=O)Nc1cccc(Nc2nc(Nc3ccc(N4CCN(CC(=O)NCCCCCCNc5cccc6c5C(=O)N(C5CCC(=O)NC5=O)C6=O)CC4)cc3OC)ncc2C(F)(F)F)c1 (stereo unspecified)
Reply: 5.48

# credit: ChEMBL document CHEMBL5113409
